Values were extracted from patent US20220088148A1.

testTarget: human GLP-1 receptor (human, UniProt P43220 24-463)
assay: cell-based or functional assay
Bridges are numbered along the chain shown (N, C = ends). Where no end group is shown, it is not given here. [ ]: non-standard residue; d: D form. Aib = CC(C)(N)C(=O)O
Measured In vitro activity (%) vs. GLP-1, cAMP EC50, listed per entry for reference.
Could you give me the number in %? Just the number is fine.

Example entries begin here.
H[Aib]QGTFTSDYSKYLDEKAQKEFVQWLLDTC (bridge 16-20) [triple agonist of SEQ ID NO: 30] ... 142
Y[Aib]QGTFTSDYSKYLDECAAKEFVQWLLDHHPSSGQPPPS (bridge 16-20; ends not checked) [triple agonist of SEQ ID NO: 64] ... 64.6

Continue with the binder presented below.
Query string: Entry H[Aib]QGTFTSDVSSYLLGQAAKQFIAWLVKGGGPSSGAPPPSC [triple agonist of SEQ ID NO: 3] has what In vitro activity (%) vs. GLP-1, cAMP EC50?
Result string: 1.8
